- test_target: Hexokinase HKDC1 (Homo sapiens)
- assay_notes: HKDC1 hexokinase inhibitors, confirmation, biochemical, single concentration (AID 504710)
- condition_parameters: recombinant HKDC1, G6PDH/diaphorase/resazurin fluorescence; at 20 µM; hits give high values
Classification field: enter 1 for inhibition values not below 40%, 0 for values below it.

{"molecule": "CC(=O)N(C1=C(Cl)C(=O)c2ccccc2C1=O)C1CCCCC1", "assigned_class": 1}
{"molecule": "O=C(CSc1nnc(CCCN2C(=O)c3cccc4cccc(c34)C2=O)n1-c1ccccc1)N1CCCCC1", "assigned_class": 1}
{"molecule": "Clc1cccc(N=C2NN=C(c3ccc4c(c3)OCCO4)CS2)c1", "assigned_class": 0}
{"molecule": "O=C1C=C(N2CCOCC2)c2ccccc2C1=O", "assigned_class": 1}
{"molecule": "COc1cc(C2c3c([nH]c(=O)[nH]c3=O)Nc3ccc4ccccc4c32)cc(OC)c1OC (centres undefined)", "assigned_class": 1}
{"molecule": "Cc1cc(C2=NNC(=Nc3ccc(S(=O)(=O)N4CCOCC4)cc3)SC2)c(C)n1C", "assigned_class": 0}
{"molecule": "COc1ccc(NC(=O)Cc2c[nH]c3ccccc23)cc1S(=O)(=O)N1CCCCC1", "assigned_class": 0}
{"molecule": "Cc1ccc(C)c(-n2nnnc2Sc2nnnn2-c2ccccc2)c1", "assigned_class": 0}
{"molecule": "CC(=NNC(=S)N1CC2CCC(CC2)C1)c1cccc(C)n1", "assigned_class": 0}
{"molecule": "O=C1NC(=S)N/C1=C/c1cc2c(cc1[N+](=O)[O-])OCO2", "assigned_class": 0}
{"molecule": "COc1ccc(N2C3=C(CC4=C2CCCC4=O)C(=O)CCC3)cc1", "assigned_class": 1}
{"molecule": "CCN(CC)Cc1cc(O)c(CN(CC)CC)cc1O", "assigned_class": 1}
{"molecule": "CN1c2ccc(C=O)c3c(C=O)ccc(c23)N(C)C1(C)C", "assigned_class": 1}
{"molecule": "CCOC(=O)c1c(C)[nH]c(C2=NNC(=Nc3ccc(OCC)cc3)SC2)c1C", "assigned_class": 0}
{"molecule": "CCOc1ccc2c(c1)C(NC(C)=O)C(=O)N2CCN1CCOCC1 (centres undefined)", "assigned_class": 1}
{"molecule": "O=C(CN(C(=O)CCC(=O)Nc1ccccn1)c1ccc2c(c1)OCO2)NCc1ccc(F)cc1", "assigned_class": 0}
{"molecule": "COc1cc(/C=C(\\C#N)c2nc3ccc(C)cc3[nH]2)cc([N+](=O)[O-])c1O", "assigned_class": 1}
{"molecule": "CC(=NNC(=S)N1CCCCC1)c1cccc(C)n1", "assigned_class": 0}
{"molecule": "Cc1ccccc1NC1=C/C(=N\\S(=O)(=O)c2ccc(C(=O)O)cc2)c2ccccc2C1=O", "assigned_class": 1}
{"molecule": "Cc1cc(C)n2cc(CSc3nnc(-c4ccccc4)c(-c4ccccc4)n3)nc2n1", "assigned_class": 0}
{"molecule": "Cc1nc2c(c(=O)c3ccccc3n2C)c(=O)n1-c1ccccc1", "assigned_class": 1}
{"molecule": "CC(C)(C)c1ccc(-c2csc(NNC3=NCCCCC3)n2)cc1", "assigned_class": 0}
{"molecule": "O=C1C(Cl)=C(NCc2cccnc2)C(=O)c2ccccc21", "assigned_class": 0}
{"molecule": "Cc1ccc(SC2=C(N(C)C)C(=O)c3ccccc3C2=O)cc1", "assigned_class": 1}
{"molecule": "Nc1nc(N2CCN(c3ccccn3)CC2)nc2ccccc12", "assigned_class": 0}
{"molecule": "O=C1C=C(N2CCCCC2)c2ccccc2C1=O", "assigned_class": 1}
{"molecule": "Cc1cccc2c(N=NC(=O)c3ccc(NS(=O)(=O)c4cccs4)cc3)c(O)[nH]c12", "assigned_class": 1}
{"molecule": "COc1cc(OC)cc(C(=O)NC(=S)NNC(=O)c2cnccn2)c1", "assigned_class": 0}
{"molecule": "Nc1ccc(S(=O)(=O)c2cc(O)c3ccccc3c2O)cc1", "assigned_class": 1}
{"molecule": "Cc1cc(C2=NNC(=Nc3ccc(S(=O)(=O)N4CCOCC4)cc3)SC2)c(C)n1CC1CCCO1 (centres undefined)", "assigned_class": 0}
{"molecule": "CC(=O)C1=C(c2ccccc2)N(C(C)=O)n2c(C)nnc2S1", "assigned_class": 0}
{"molecule": "COc1ccc(S(=O)(=O)Nc2ccc(O)c3ccccc23)cc1", "assigned_class": 1}
{"molecule": "Cc1ccc(NC2c3ncccc3C(=O)N2c2ccccc2C)cc1C (centres undefined)", "assigned_class": 0}
{"molecule": "CCOC(=O)C1=C(Cc2ccc(F)cc2)C(=O)c2ccccc2C1=O", "assigned_class": 1}
{"molecule": "Cn1cnnc1SC1c2cccc3cccc(c23)C1NS(=O)(=O)c1ccccc1 (centres undefined)", "assigned_class": 0}
{"molecule": "CC(C)c1nc2oc3c(NCC4CCCO4)ncnc3c2c2c1COC(C)(C)C2 (centres undefined)", "assigned_class": 1}
{"molecule": "CC[n+]1c(/C=C2\\Sc3ccccc3N2C)ccc2cccc(C)c21", "assigned_class": 0}
{"molecule": "CC(NC1=CC(=O)c2cccnc2C1=O)C(O)c1ccccc1 (centres undefined)", "assigned_class": 1}
{"molecule": "CC(C)c1nc2oc3c(=O)[nH]cnc3c2c2c1COC(C)(C)C2", "assigned_class": 1}
{"molecule": "O=Cc1[nH]c2ccccc2c1N(C(=O)CCl)c1ccccc1", "assigned_class": 0}
{"molecule": "O=C(CSc1n[nH]c(-c2cccnc2)n1)Nc1ccnc2ccccc12", "assigned_class": 1}

Ref: PubChem BioAssay AID504710
